target: DR4 (DRB1*0401) molecules (Homo sapiens, UniProt P01903+P01911, A100K/A169T/F76Y/I96L/K127E/L162R/M171V/N62H/P40V/Q125Y/R42H/S133A/S149N/S66Y/V115G/V209L/W38E); construct: molecules were purified from the homozygous EBV-transformed human B lymphoblastoid cell lines Huly138IC2 and BM92 using the mAb; endogenous in cells; test: Peptide HLA-DR binding assay (semi-quantitative competition binding)
Ends that are not written are not given here.
Quantity name: Relative affinity of binding to DR4 (DRB1*0401), in words

YKLVCYYTSWSQYREG [peptide 1, YKLVCYYTSWSQYREG] = relatively high affinity
LAGAMVWALDLDDFQG [compound 55, LAGAMVWALDLDDFQG] = relatively high affinity
GRSFTLASSETGVGAP [compound 41, GRSFTLASSETGVGAP] = relatively high affinity
